Form field: OD450 at 1 nM (one value per entry).
# Assayed Target: T1, monkey GPC3-His protein (monkey)
# T1 construct: Bought recombinant protein; also called monkey GPC3 protein
# Assay Protocol: ELISA, monkey GPC3-His coated;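 also: Plate-coated antigen at 1 µg/mL, antibody binding 2 h at 37 °C, detected with HRP-labeled secondary antibody and TMB, absorbance at 450 nm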
Use OD450 as the unit, but write only the number.

| Binder | Assay Readout | Unit Info | Measured |
| --- | --- | --- | --- |
| F2.39.2 (antibody, human IgG1, kappa, V domains shown, Human-murine chimeric antibody) VH: QVQLQQSGAELVRPGASVKVSCKASGYTFTDYEMHWMKQTPVHGLEWIGANEPETGRSAYDQKFKGKATLTADKSSSTAYMELRSLTSEDSAVYYCTRFYSFAYWGQGTLVTVSA VL: DVVMTQTPLSLPVSLGDQASISCRSSQGLVHNNGNTYLHWYLQKPGQSPKLLIYKVSNRFSGVPDRFSGSGSGTDFTLKISRVEAEDLGVYFCSQNTHVPPTFGGGTKLEIKR | OD450 at 1 nM | OD450 | 2.36 |
| F1.73.9 (antibody, human IgG1, kappa, V domains shown, Human-murine chimeric antibody) VH: QVQLKQSGAELVRPGASVKLSCKASGYTFTDYYINWVKQRPGQGLEWIARIYPGSGNTYYNEKFKGKATLTAEKSSSTAYMQFSSLTSEDSAVYFCACSTYYTMDYWGQGTSVTVSS VL: QIVLTQSPAIMSASLGERVTMTCTASSGVSSSYLHWYQQKPGSSPKLWIYTTSNLASGVPARFSGSGSGTSYSLTISSMEAEDAATYYCHQYHRSPYTFGGGTKLEIKR | OD450 at 1 nM | OD450 | 1.14 |
| F2.55.11 (antibody, human IgG1, kappa, V domains shown, Human-murine chimeric antibody) VH: EVKLVESGGGLVKPGGSLKLSCAASGLTFSTCTMSWVRQTPAKRLEWVATISSGGGNTYYPDSVKGRFTISRDNARNTLYLQMSSLRSEDTAMYYCVRLYYDGSPYAMDYWGQGTSVTVSS VL: DIQMTQTTSSLSASLGDRVTISCRASQDISNHLNWYQQKPDGTVKLLIYYTSRLHSGVPSRFSGSGSGTDYSLTISNLEQEDIATYFCQQDSKPPPTFGSGTKLEIKR | OD450 at 1 nM | OD450 | 2.3 |
| F1.9.19 (antibody, human IgG1, kappa, V domains shown, Human-murine chimeric antibody) VH: DVQLQESGPGLVKPSQSLSLTCSVTGYSITSGYYWNWIRQFPGNRLEWMAYISYDGINNYNPSLKNRISIARDTSTNQFFLKLNSVTSEDTATYYCATTTEVALFDHWGQGTTLTVSS VL: DVLLTQTPLSLPVSLGDQASISCRSSQNIVHGNGNTYLEWFLQKPGQSPKLLIYKVSNRFSGVPDRFSGSGSGTDFTLKISRVEAEDLGLYYCFQASHVPWTFGGGTKLEIKR | OD450 at 1 nM | OD450 | 1.39 |

Shifting focus to the binder that follows.
Q) Consider the binder shown here: F1.83.6 (antibody, human IgG1, kappa, V domains shown, Human-murine chimeric antibody) VH: QVQLQQSGPELVKPGASVKISCKASGYAFSSSWMNWVKQRPGKGLEWIGRIYPGDGDTNYNGRFKGKATLTVDKSSSTAYMQLSSLTSEDSAVYFCARGGVFTMALDHWGQGTTLTVSS VL: DIQMTQSPSSLSASLGGKVTITCKASQDINKYIAWYQHKPGKGPRLLIHYTSTLQPGIPSRFSGSGSGRDYSFSISNLEPEDIATYYCLQYDNLFTFGGGTKLEIKR What is its recorded OD450 at 1 nM?
A) 0.62
